Cited source: patent US12415811B2

Listed compounds paired with reported microsomal CLint at 1 μM
# Experiment Description: In vitro intrinsic clearance in human microsomes
# Format: in vitro ADME
# Condition Context: pH 7.4; human microsomes 0.5 mg/ml, 1 μM compound, 37° C., up to 1 hour; read-out: human MS Clint

Compound	microsomal CLint at 1 μM
COc1ncc(-n2cc3c(c2C(C)C)[C@@]2(C(=O)Nc4cc(Cl)ccc42)N(c2cccc(Cl)c2)C3=O)c(OC)n1 [Compound 1]	< 3 µL/min/mg
COc1cc(N(C)C)ncc1-n1cc2c(c1C(C)C)[C@@]1(C(=O)Nc3cc(Cl)ccc31)N(c1cc(Cl)ccc1F)C2=O [Compound 6]	19.8 µL/min/mg
COc1ncc(-n2cc3c(c2C(C)C)[C@@]2(C(=O)Nc4cc(Cl)ccc42)N(c2ccc(F)c(Cl)c2)C3=O)c(OC)n1 [Compound 4]	< 3 µL/min/mg

----------
# Target Desc: p53-Mdm2 interaction (Homo sapiens (Human))
# Sequence (Q00987 1-111): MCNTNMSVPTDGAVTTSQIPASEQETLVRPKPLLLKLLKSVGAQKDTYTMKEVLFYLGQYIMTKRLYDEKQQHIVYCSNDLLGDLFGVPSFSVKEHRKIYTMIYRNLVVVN
# Experiment Description: Fluorescence polarization (FP) binding assay, inhibition of p53-Mdm2 interaction
# Condition Context: 75 nM Mdm2 (amino acids 1-111), 10 nM FAM-labelled p53 peptide; IC50 transformed to Ki using Kenakin equation
Define the label as fulfilled when Ki is strictly less than 2 nM and as not fulfilled in all remaining cases.

Compound	Cat
COc1nc(OC)c(-n2cc3c(c2C(C)C)[C@@]2(C(=O)Nc4cc(Cl)ccc42)N(c2cc(Cl)ccc2F)C3=O)c(OC)n1	not fulfilled
COc1ncc(-n2cc3c(c2C(C)C)[C@@]2(C(=O)Nc4cc(Cl)ccc42)N(c2ccc(F)c(Cl)c2)C3=O)c(OC)n1	fulfilled
COc1cc(N(C)C)ncc1-n1cc2c(c1C(C)C)[C@@]1(C(=O)Nc3cc(Cl)ccc31)N(c1cc(Cl)ccc1F)C2=O	fulfilled
COc1nc(OC)c(-n2cc3c(c2C(C)C)[C@@]2(C(=O)Nc4cc(Cl)ccc42)N(c2cc(Cl)ccc2C)C3=O)c(OC)n1	not fulfilled
COc1ncc(-n2cc3c(c2C(C)C)[C@@]2(C(=O)Nc4cc(Cl)ccc42)N(c2ccc(F)c(F)c2)C3=O)c(OC)n1	fulfilled
CCC(C)c1c2c(cn1-c1cnc(OC)nc1OC)C(=O)N(c1cc(Cl)ccc1F)[C@]21C(=O)Nc2cc(Cl)ccc21 (some centres unmarked)	not fulfilled
COc1cc(OC)c(-n2cc3c(c2C(C)C)[C@@]2(C(=O)Nc4cc(Cl)ccc42)N(c2ccc(F)c(F)c2)C3=O)cn1	fulfilled
COc1ncc(-n2cc3c(c2C(C)C)[C@@]2(C(=O)Nc4cc(Cl)ccc42)N(c2cc(Cl)ccc2F)C3=O)c(OC)n1	fulfilled
COc1ncc(-n2cc3c(c2C(C)C)[C@@]2(C(=O)Nc4cc(Cl)ccc42)N(c2cccc(Cl)c2)C3=O)c(OC)n1	fulfilled

----------
# Experiment Description: In vitro intrinsic clearance in human microsomes
# Format: in vitro ADME
# Condition Context: pH 7.4; human microsomes 0.5 mg/ml, 1 μM compound, 37° C., up to 1 hour; read-out: human MS Clint
Below: a set of entries, each annotated with reported microsomal CLint at 1 μM.
Metric: microsomal CLint at 1 μM

Compound	Data Value
COc1cc(OC)c(-n2cc3c(c2C(C)C)[C@@]2(C(=O)Nc4cc(Cl)ccc42)N(c2ccc(F)c(F)c2)C3=O)cn1	< 3 µL/min/mg
COc1nc(OC)c(-n2cc3c(c2C(C)C)[C@@]2(C(=O)Nc4cc(Cl)ccc42)N(c2cc(Cl)ccc2C)C3=O)c(OC)n1	< 3 µL/min/mg
COc1ncc(-n2cc3c(c2C(C)C)[C@@]2(C(=O)Nc4cc(Cl)ccc42)N(c2cc(Cl)ccc2F)C3=O)c(OC)n1	< 3 µL/min/mg
COc1nc(OC)c(-n2cc3c(c2C(C)C)[C@@]2(C(=O)Nc4cc(Cl)ccc42)N(c2cc(Cl)ccc2F)C3=O)c(OC)n1	< 3 µL/min/mg
COc1ncc(-n2cc3c(c2C(C)C)[C@@]2(C(=O)Nc4cc(Cl)ccc42)N(c2ccc(F)c(F)c2)C3=O)c(OC)n1	< 3 µL/min/mg
COc1ncc(-n2cc3c(c2C(C)C)[C@@]2(C(=O)Nc4cc(Cl)ccc42)N(c2cc(Cl)c(F)cc2F)C3=O)c(OC)n1	< 3.2 µL/min/mg
